- Read-out: Apolipoprotein A-V (APOA5) gene, APOA5 (gene 116519)
- Protocol Details: LTEA_HepaRG_APOA5: Life Technologies and Expression Analysis (LTEA) Assay for Apolipoprotein A-V (APOA5) gene using HepaRG (AID 2283474)
- Details: mRNA level, 48 h; actives raise or lower the signal
- Protocol: LTEA_HepaRG is a cell based, multiplexed-readout assay that uses HepaRG, a human liver cell line, with measurements taken at 48 hours after chemical dosing on a 96-well plate.LTEA_HepaRG_APOA5 is one of 102 assay component(s) measured in the LTEA HepaRG cell culture assay. It is a marker of Steatosis.Data from the assay component LTEA_HepaRG_APOA5 was analyzed into 1 endpoint. […]
Calls of active or inactive are those of the source. How the source made its calls: active means hit-call score of the fitted dose curve at least 0.9, where 1 is the maximum; inactive means score below 0.9.
In this exercise, the only acceptable responses are active, inactive

Mol Smiles	Category Label
Cc1ccc(N)cc1O	inactive
Cn1cnc([N+](=O)[O-])c1Sc1ncnc2nc[nH]c12	active
COCCOc1cc2cc(C(=O)NC3CCN(C(C)C)CC3)n(CC(=O)Nc3ccc(Cl)cn3)c2cn1	active

Kindly review the next molecule as well.
Call for entry O=C1CCCCCN1 :
inactive

###

- Protocol Details: CEETOX_H295R_CORTISOL: CeeTox H295R High-throughput Steroidogenesis Assay for Cortisol (AID 2283438);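 further: cortisol secreted into medium quantified by LC-MS/MS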
- Details: actives raise or lower the signal
Activity calls are given as the source filed them. The calls were made as follows: active = hit-call score of the fitted dose curve at least 0.9, where 1 is the maximum; inactive = score below 0.9.
Assay Metric: AC50

Molecule	AC50
Fc1ccccc1[C@@H](F)COC1CCC(Nc2ncnc3[nH]ncc23)CC1 (some centres undefined)	5 µM (active)
CC(C)CC(C)(O)C#CC(C)(O)CC(C)C (centres undefined)	inactive
CC(C)=CCCC(C)=CC=O	75 µM (active)
CCC(C)(C)C(=O)O[C@H]1C[C@@H](C)C=C2C=C[C@H](C)[C@H](CC[C@@H]3C[C@@H](O)CC(=O)O3)[C@H]21	inactive
CC[C@H](C)C(=O)O[C@H]1C[C@@H](C)C=C2C=C[C@H](C)[C@H](CC[C@@H]3C[C@@H](O)CC(=O)O3)[C@H]21	inactive
COc1cccc(-c2ccc(/C=C\CN3CCCCCC3)cc2Cl)c1	inactive
CC(C)c1cccc(C(C)C)c1N1C(=O)c2ccc(O)cc2C1=O	27.1 µM (active)
Cc1ccc(O)cc1	inactive

Kindly review the next molecule as well.
AC50 lookup needed for CCOC(=O)c1ccc(C2CCC(NC[C@H](O)COc3ccc(O)c(NS(C)(=O)=O)c3)CC2)cc1 (some centres undefined) , thanks.
inactive

###

- Read-out: CD38, CD38 (gene 952)
- Protocol Details: BSK_SAg_CD38: BioMAP Diversity Plus: SAg Assay for CD38 Biomarker Activity (AID 2283087)
- Details: primary human HUVEC with PBMC; actives raise or lower the signal
The source made the active and inactive calls. The calls were made as follows: active = hit-call score of the fitted dose curve at least 0.9, where 1 is the maximum; inactive = score below 0.9.
In this exercise, the only acceptable responses are True = active, False = inactive

Answered cases to consult:
Compound	Category Label
Nc1nc2ncc(CNc3ccc(C(=O)N[C@@H](CCC(=O)O)C(=O)O)cc3)nc2c(=O)[nH]1	False
Cc1ccc(S(=O)(=O)O)cc1C	False
Cn1c(=O)c2c(ncn2C)n(C)c1=O	False
CC(C)=CCCC(C)CCO (configuration not stated)	False
O=c1n(CC2CO2)c(=O)n(CC2CO2)c(=O)n1CC1CO1 (configuration not stated)	True
CC(=O)c1ccc2c(c1)[C@H](NC(=O)c1ccc(F)cc1)[C@@H](O)C(C)(C)O2	False
COCCOCCOCCOC	False
CCOC(=O)COc1ccc2c(c1)CC(NCC(O)c1cccc(Cl)c1)CC2 (configuration not stated)	True

Call for entry CCCCCCCCCCCCc1ccccc1 :
False

# repeat for O=C(O)CC(O)C(=O)O (configuration not stated)
False

# repeat for Clc1nc(Cl)c(Cl)c(Cl)c1Cl
True

# repeat for O=C(OC[C@H]1O[C@@H](OC(=O)c2cc(O)c(O)c(OC(=O)c3cc(O)c(O)c(O)c3)c2)[C@H](OC(=O)c2cc(O)c(O)c(OC(=O)c3cc(O)c(O)c(O)c3)c2)[C@@H](OC(=O)c2cc(O)c(O)c(OC(=O)c3cc(O)c(O)c(O)c3)c2)[C@@H]1OC(=O)c1cc(O)c(O)c(OC(=O)c2cc(O)c(O)c(O)c2)c1)c1cc(O)c(O)c(OC(=O)c2cc(O)c(O)c(O)c2)c1
True

Origin of measurements: PubChem BioAssay (EPA / NIEHS)
